Each recorded value in this set is attributed to PubChem BioAssay (EPA / NIEHS).

Protocol Text: ATG_Oct_MLP_CIS: Attagene CIS-FACTORIAL HepG2 Assay for human Octamer-Binding Transcription Factor (Oct) (AID 2282993)
Condition Notes: HepG2 Attagene cis-factorial Oct reporter, mRNA; actives raise or lower the signal
Calls of active or inactive are those of the source. How the source made its calls: active means hit-call score of the fitted dose curve at least 0.9, where 1 is the maximum; inactive means score below 0.9.
Just give me one of these, please: active, inactive

Worked examples follow.
>>> discrete_label("CCCCCCCCn1sccc1=O")
"active"
>>> discrete_label("C[N+](C)(C)CC1CO1 (configuration not stated)")
"inactive"

query: Call for entry CCC12COCN1COC2 :
result: inactive

query: For CC(C)(OOC(C)(C)c1ccccc1)c1ccccc1 , what call appears in the results of this test?
result: active

query: Dear all, I need the recorded test outcome for C1=Cc2cccc3cccc1c23 , thank you.
result: inactive

query: Which result was noted for this compound in the test: Brc1ccc(Oc2ccccc2)cc1
result: active

query: Any idea what this test logged for Cc1ccc([N+](=O)[O-])cc1 ?
result: inactive

query: Kindly provide the recorded test outcome for the following compound: Nc1cc(Cl)cc(C(=O)O)c1Cl
result: inactive

query: Record lookup: outcome of this test for O=C(Nc1ccccc1)c1ccccc1I ?
result: inactive

query: Could you please tell me the result logged for ClC1=C(Cl)[C@]2(Cl)[C@H]3[C@H]([C@@H]4C=C[C@H]3C4)[C@@]1(Cl)C2(Cl)Cl in this assay?
result: active

query: What is the recorded call for this compound in the test? CCOC(=O)[C@]1(c2ccccc2)Oc2ccccc2[C@@H]1N
result: active

query: Given Cc1ccc(N)cc1 , state the outcome it received in this test.
result: inactive

query: GET /call?item= Clc1ccccc1Cl returns the recorded outcome of this test.
result: inactive

query: Hi, sorry to bother you, what did the test record for Nc1ccc(Cc2ccc(N)cc2)cc1 ?
result: inactive
